# system: acetylcholine esterase (Mus musculus, UniProt P21836)
# Construct: using a mouse brain homogenate as the acetylcholine esterase source; from tissue; host or cells: mouse brain homogenate
# Sequence (P21836 32-614): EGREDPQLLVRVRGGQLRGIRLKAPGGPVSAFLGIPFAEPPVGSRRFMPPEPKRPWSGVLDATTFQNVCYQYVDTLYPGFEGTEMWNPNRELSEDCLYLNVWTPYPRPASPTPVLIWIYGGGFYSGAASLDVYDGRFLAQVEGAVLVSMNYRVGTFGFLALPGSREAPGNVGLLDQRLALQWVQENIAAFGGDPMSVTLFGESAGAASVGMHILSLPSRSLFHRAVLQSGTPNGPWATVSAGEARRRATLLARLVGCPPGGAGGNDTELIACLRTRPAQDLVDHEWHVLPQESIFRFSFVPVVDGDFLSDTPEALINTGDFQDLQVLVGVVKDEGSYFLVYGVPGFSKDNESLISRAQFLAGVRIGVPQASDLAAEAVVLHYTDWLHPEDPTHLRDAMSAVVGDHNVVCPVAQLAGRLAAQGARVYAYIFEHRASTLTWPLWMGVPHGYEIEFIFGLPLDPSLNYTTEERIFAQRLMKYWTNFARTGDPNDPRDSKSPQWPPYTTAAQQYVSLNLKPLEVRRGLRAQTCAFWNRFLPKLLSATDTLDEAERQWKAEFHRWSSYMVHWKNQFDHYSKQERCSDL
# assay-info: biochemical
Counter-ions that a name gives are not always drawn.
observation-type: pIC50
Worth noting: pIC50 values are minus log10 of concentrations stated in mol/L.

Answered cases to consult:
molecule	pIC50
Cc1ccc2oc(=O)n(CCC3CCN(Cc4ccccc4)CC3)c(=O)c2c1 [Example 37]	8.53
COc1ccc2c(c1)CN(CCC1CCN(Cc3ccccc3)CC1)C(=O)O2 [Example 26]	9.30

(Q) Which pIC50 value is on record for COc1cc(OC)c2c(c1)OC(=O)N(CCC1CCN(Cc3ccccc3)CC1)C2 [Example 28] ?
(A) 9.42

(Q) One more molecule: CCOc1ccc(C(=O)C2CC(=O)N(CCC3CCN(Cc4ccccc4)CC3)C2)cc1 (stereo not drawn) [Example 75]
(A) 7.68

(Q) One more molecule: C=C1c2nccnc2C(=O)N1CCC1CCN(Cc2ccccc2)CC1 [Example 12]
(A) 8.74

(Q) One more molecule: COc1ccc2c(c1)OC(=O)N(CCC1CCN(Cc3ccccc3)CC1)C2 [Example 24]
(A) 8.73

(Q) One more molecule: O=c1oc2ccc(F)cc2c(=O)n1CCC1CCN(Cc2ccccc2)CC1 [Example 39]
(A) 8.11

(Q) One more molecule: COc1ccc2c(c1)CN(CCC1CCN(Cc3ccncc3)CC1)C(=O)O2 [Example 4, dihydrochloride]
(A) 8.10

(Q) One more molecule: O=C1Oc2ccc([N+](=O)[O-])cc2CN1CCC1CCN(Cc2ccncc2)CC1 [Example 34]
(A) 7.86
